Assign interaction score to each entry below.
# test target: T1, 4H338-bH
# T1 chain: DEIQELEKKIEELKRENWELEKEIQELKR
# assay text: two-hybrid library CCNG1;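 further: natural log of median RNA to DNA barcode read ratio; higher means stronger binding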

Use these answered entries as a reference point.
{"binder": "DENQQLEQKIQELKQENQELKWKIQELEQ [4H1373-bN]", "interaction score": -0.758}
{"binder": "DKNQELEKEIEELERKIWELEKKNQELKR [4H3112-bH]", "interaction score": 1.72}
{"binder": "DENQELEKKNEELERKIWELEKKIQELKR [4H1446-bH]", "interaction score": 1.17}

## Task Return interaction score (reported value) for this binder: DKNQELEKEIEELKRKNWELEKEIQELER [4H3185-bH]
## Result -0.56
